# Tested on: DU-145 multicell spheroids with HUVEC/MSC, viability
# experiment_description: Anticancer human tumor DU-145 cell line growth inhibition [IpAb]
# condition_info: second compound 1 µM; first compound 3.16 µM; hits give low values
viability, T/C listing for selected molecules.
Report as a plain number; the unit % is understood.

C=CC(=O)N1CCN(c2nc(=O)n(-c3c(C)ccnc3C(C)C)c3nc(-c4c(O)cccc4F)c(F)cc23)C(C)C1 (stereo unspecified) + CC(C)NCC(C(=O)N1CCN(c2ncnc3c2C(C)CC3O)CC1)c1ccc(Cl)cc1: 34.5
Cc1nc(NC(=O)N2CCCC2C(N)=O)sc1-c1ccnc(C(C)(C)C(F)(F)F)c1 (stereo unspecified) + CCN1CCN(Cc2ccc(Nc3ncc(F)c(-c4cc(F)c5nc(C)n(C(C)C)c5c4)n3)nc2)CC1: 28.4
C=CCn1c(=O)c2cnc(Nc3ccc(N4CCN(C)CC4)cc3)nc2n1-c1cccc(C(C)(C)O)n1 + CCN1CCN(Cc2ccc(Nc3ncc(F)c(-c4cc(F)c5nc(C)n(C(C)C)c5c4)n3)nc2)CC1: 7.82
Cn1nccc1Nc1nccc(-c2ccn(C(CO)c3ccc(Cl)c(F)c3)c(=O)c2)n1 (stereo unspecified) + CCN1CCN(Cc2ccc(Nc3ncc(F)c(-c4cc(F)c5nc(C)n(C(C)C)c5c4)n3)nc2)CC1: 90.2
C=CC(=O)N1CCN(c2nc(=O)n(-c3c(C)ccnc3C(C)C)c3nc(-c4c(O)cccc4F)c(F)cc23)C(C)C1 (stereo unspecified) + CCN1CCN(Cc2ccc(Nc3ncc(F)c(-c4cc(F)c5nc(C)n(C(C)C)c5c4)n3)nc2)CC1: 67.5

Please look up its viability, T/C: Cn1nccc1Nc1nccc(-c2ccn(C(CO)c3ccc(Cl)c(F)c3)c(=O)c2)n1 (stereo unspecified) + CC(C)NCC(C(=O)N1CCN(c2ncnc3c2C(C)CC3O)CC1)c1ccc(Cl)cc1
42.3

Continue with CCCS(=O)(=O)Nc1ccc(F)c(C(=O)c2c[nH]c3ncc(-c4ccc(Cl)cc4)cc23)c1F + CCN1CCN(Cc2ccc(Nc3ncc(F)c(-c4cc(F)c5nc(C)n(C(C)C)c5c4)n3)nc2)CC1
69.9

###

# Test system: DU-145 multicell spheroids with HUVEC/MSC, viability
# experiment_description: Anticancer human tumor DU-145 cell line growth inhibition [IpAb]
# condition_info: second compound 1 µM; first compound 0.1 µM; hits give low values
Quick reference for viability, T/C among some compounds
# value in %; strip the unit string

Query: viability, T/C; subject: C=CC(=O)N1CCN(c2nc(=O)n(-c3c(C)ccnc3C(C)C)c3nc(-c4c(O)cccc4F)c(F)cc23)C(C)C1 (centres undefined) + CCN1CCN(Cc2ccc(Nc3ncc(F)c(-c4cc(F)c5nc(C)n(C(C)C)c5c4)n3)nc2)CC1
64.4

Try this compound too: C=CCn1c(=O)c2cnc(Nc3ccc(N4CCN(C)CC4)cc3)nc2n1-c1cccc(C(C)(C)O)n1 + CCN1CCN(Cc2ccc(Nc3ncc(F)c(-c4cc(F)c5nc(C)n(C(C)C)c5c4)n3)nc2)CC1
50.5

// repeat for CCCS(=O)(=O)Nc1ccc(F)c(C(=O)c2c[nH]c3ncc(-c4ccc(Cl)cc4)cc23)c1F + CC(C)NCC(C(=O)N1CCN(c2ncnc3c2C(C)CC3O)CC1)c1ccc(Cl)cc1 and report
31.8

Lookup Cn1ncnc1[C@H]1c2n[nH]c(=O)c3cc(F)cc(c23)N[C@@H]1c1ccc(F)cc1 + CCN1CCN(Cc2ccc(Nc3ncc(F)c(-c4cc(F)c5nc(C)n(C(C)C)c5c4)n3)nc2)CC1
61.2

###

Readings of viability, T/C for the listed molecules
# Tested on: DU-145 multicell spheroids with HUVEC/MSC, viability
# experiment_description: Anticancer human tumor DU-145 cell line growth inhibition [IpAb];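 also: spheroids exposed to agents for seven days before measurement; percent of DMSO vehicle control viability so 100% = untreated level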
# condition_info: second compound 3.16 µM; first compound 3.16 µM; hits give low values

Observed viability, T/C on DU-145 multicell spheroids with HUVEC/MSC, viability for Cn1nccc1Nc1nccc(-c2ccn(C(CO)c3ccc(Cl)c(F)c3)c(=O)c2)n1 (configuration not stated) + CC(C)NCC(C(=O)N1CCN(c2ncnc3c2C(C)CC3O)CC1)c1ccc(Cl)cc1 , please.
27.6%

Do the same for C=CC(=O)N1CCN(c2nc(=O)n(-c3c(C)ccnc3C(C)C)c3nc(-c4c(O)cccc4F)c(F)cc23)C(C)C1 (configuration not stated) + CC(C)NCC(C(=O)N1CCN(c2ncnc3c2C(C)CC3O)CC1)c1ccc(Cl)cc1 please
24.5%

Try this molecule too: Cc1nc(NC(=O)N2CCCC2C(N)=O)sc1-c1ccnc(C(C)(C)C(F)(F)F)c1 (configuration not stated) + CC(C)NCC(C(=O)N1CCN(c2ncnc3c2C(C)CC3O)CC1)c1ccc(Cl)cc1
8.48%

What about this molecule? CCCS(=O)(=O)Nc1ccc(F)c(C(=O)c2c[nH]c3ncc(-c4ccc(Cl)cc4)cc23)c1F + CC(C)NCC(C(=O)N1CCN(c2ncnc3c2C(C)CC3O)CC1)c1ccc(Cl)cc1
23.6%

###

Quick reference: viability, T/C of the listed items.
# Test system: DU-145 multicell spheroids with HUVEC/MSC, viability
# experiment_description: Anticancer human tumor DU-145 cell line growth inhibition [IpAb];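 also: spheroids exposed to agents for seven days before measurement; percent of DMSO vehicle control viability so 100% = untreated level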
# condition_info: second compound 0.316 µM; first compound 0.01 µM; hits give low values
Only the number, expressed in %, is required.

Cn1ncnc1[C@H]1c2n[nH]c(=O)c3cc(F)cc(c23)N[C@@H]1c1ccc(F)cc1 + CCN1CCN(Cc2ccc(Nc3ncc(F)c(-c4cc(F)c5nc(C)n(C(C)C)c5c4)n3)nc2)CC1: 73.3
COc1c(OCCCN2CCOCC2)ccc2c3n(c(=NC(=O)c4cnc(N)nc4)nc12)CCN3 + CCN1CCN(Cc2ccc(Nc3ncc(F)c(-c4cc(F)c5nc(C)n(C(C)C)c5c4)n3)nc2)CC1: 40.4
Cn1ncnc1[C@H]1c2n[nH]c(=O)c3cc(F)cc(c23)N[C@@H]1c1ccc(F)cc1 + CC(C)NCC(C(=O)N1CCN(c2ncnc3c2C(C)CC3O)CC1)c1ccc(Cl)cc1: 53.8
CC(C)n1nc(-c2ccc3oc(N)nc3c2)c2c(N)ncnc21 + CCN1CCN(Cc2ccc(Nc3ncc(F)c(-c4cc(F)c5nc(C)n(C(C)C)c5c4)n3)nc2)CC1: 31.5
CC(C)n1nc(-c2ccc3oc(N)nc3c2)c2c(N)ncnc21 + CC(C)NCC(C(=O)N1CCN(c2ncnc3c2C(C)CC3O)CC1)c1ccc(Cl)cc1: 13.5

Turning to the following compound.
Look up viability, T/C: COc1c(OCCCN2CCOCC2)ccc2c3n(c(=NC(=O)c4cnc(N)nc4)nc12)CCN3 + CC(C)NCC(C(=O)N1CCN(c2ncnc3c2C(C)CC3O)CC1)c1ccc(Cl)cc1
28.2

###

# Tested on: DU-145 multicell spheroids with HUVEC/MSC, viability
# experiment_description: Anticancer human tumor DU-145 cell line growth inhibition [IpAb];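 also: spheroids exposed to agents for seven days before measurement; percent of DMSO vehicle control viability so 100% = untreated level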
# condition_info: second compound 1 µM; first compound 1 µM; hits give low values
Form field: viability, T/C (one value per entry).
# number only, unit % dropped from output

Recorded results for 4 molecules are shown here.
CCCS(=O)(=O)Nc1ccc(F)c(C(=O)c2c[nH]c3ncc(-c4ccc(Cl)cc4)cc23)c1F + CC(C)NCC(C(=O)N1CCN(c2ncnc3c2C(C)CC3O)CC1)c1ccc(Cl)cc1: 41.2
Cn1ncc(Cl)c1-c1cc(C(=O)NC(CN)Cc2cccc(F)c2)sc1Cl (stereo not given) + CCN1CCN(Cc2ccc(Nc3ncc(F)c(-c4cc(F)c5nc(C)n(C(C)C)c5c4)n3)nc2)CC1: 30.9
Cc1nc(NC(=O)N2CCCC2C(N)=O)sc1-c1ccnc(C(C)(C)C(F)(F)F)c1 (stereo not given) + CCN1CCN(Cc2ccc(Nc3ncc(F)c(-c4cc(F)c5nc(C)n(C(C)C)c5c4)n3)nc2)CC1: 39
Cn1nccc1Nc1nccc(-c2ccn(C(CO)c3ccc(Cl)c(F)c3)c(=O)c2)n1 (stereo not given) + CCN1CCN(Cc2ccc(Nc3ncc(F)c(-c4cc(F)c5nc(C)n(C(C)C)c5c4)n3)nc2)CC1: 73.5

Let's switch to this molecule now.
viability, T/C for COc1c(OCCCN2CCOCC2)ccc2c3n(c(=NC(=O)c4cnc(N)nc4)nc12)CCN3 + CCN1CCN(Cc2ccc(Nc3ncc(F)c(-c4cc(F)c5nc(C)n(C(C)C)c5c4)n3)nc2)CC1 ?
20.8

###

# System: DU-145 multicell spheroids with HUVEC/MSC, viability
# experiment_description: Anticancer human tumor DU-145 cell line growth inhibition [IpAb];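 also: spheroids exposed to agents for seven days before measurement; percent of DMSO vehicle control viability so 100% = untreated level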
# condition_info: second compound 0.0316 µM; first compound 0.1 µM; hits give low values
measure_name: viability, T/C (%)
Your answer is read as %, so omit the unit and give the number.

Cn1nccc1Nc1nccc(-c2ccn(C(CO)c3ccc(Cl)c(F)c3)c(=O)c2)n1 (stereo not drawn) + CCN1CCN(Cc2ccc(Nc3ncc(F)c(-c4cc(F)c5nc(C)n(C(C)C)c5c4)n3)nc2)CC1: 64.7
Cn1ncnc1[C@H]1c2n[nH]c(=O)c3cc(F)cc(c23)N[C@@H]1c1ccc(F)cc1 + CCN1CCN(Cc2ccc(Nc3ncc(F)c(-c4cc(F)c5nc(C)n(C(C)C)c5c4)n3)nc2)CC1: 77.4

In the following, a different molecule is considered.
If you can, please state the reported viability, T/C value of COc1c(OCCCN2CCOCC2)ccc2c3n(c(=NC(=O)c4cnc(N)nc4)nc12)CCN3 + CCN1CCN(Cc2ccc(Nc3ncc(F)c(-c4cc(F)c5nc(C)n(C(C)C)c5c4)n3)nc2)CC1 .
13.5
